- System: HeLa
- measurement_description: Cytotoxicity against human HeLa cells assessed as growth inhibition after 72 hrs by MTT assay
- Assay type: cell-based
- recorded_conditions: hela, 72 h
In this section we review reported GI90 values for a set of compounds.

Use the examples below as a reference point.
Can you share its GI90? I mean this compound: O=C(CC(=O)c1ccccc1O)c1cc2ccccc2s1
> 30 µg/mL

Can you share its GI90? I mean this compound: Cc1cc(O)c(C(=O)CC(=O)c2cc3ccccc3s2)cc1Cl
> 100 µg/mL

Can you share its GI90? I mean this compound: Cc1cc2oc(-c3cc4ccccc4s3)cc(=O)c2cc1Cl
> 30 µg/mL

Can you share its GI90? I mean this compound: Cc1ccc(C(=O)CC(=O)c2cc3ccccc3s2)c(O)c1
> 30 µg/mL

Can you share its GI90? I mean this compound: Cc1ccc(O)c(C(=O)CC(=O)c2cc3ccccc3s2)c1
> 30 µg/mL

Read the next record carefully.
Can you share its GI90? I mean this compound: O=C(CC(=O)c1cc(Cl)cc(Cl)c1O)c1cc2ccccc2s1
> 100 µg/mL

The origin of these recorded values is ChEMBL document CHEMBL4431374.
